B1: Hairpin Ribozyme (parent)
chain: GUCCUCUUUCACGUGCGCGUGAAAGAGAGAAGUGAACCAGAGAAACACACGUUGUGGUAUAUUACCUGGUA

- Variants of: B1
- Assay Overview: self-cleavage, relative activity (ratio to wild type); higher = more cleavage; co-transcriptional
Give measured self-cleavage for each item. Keep answers brief.
One number for each entry.

# batch size: 5; output self-cleavage per entry
1. G1A A47G
2. A26G A64G
3. A11U A44G
4. A35C A41C
5. G1C A61C

[reply]
1: 0.123; 2: 0.55; 3: 0.144; 4: 1.13; 5: 0.249

# batch size: 6; output self-cleavage per entry
1. G15C U60G
2. G40C G68C
3. A45G U67C
4. C18U A44G
5. C4U G15A
6. G34C A71U

[reply]
1. 0.466
2. 0.0987
3. 0.12
4. 0.113
5. 0.33
6. 1.27

# batch size: 5; output self-cleavage per entry
1. A24U U55C
2. A35C G69C
3. C4G A23C
4. U2A G15A
5. A47C A59G

[reply]
1: 0.11; 2: 0.126; 3: 0.233; 4: 0.216; 5: 0.0267

# batch size: 3; output self-cleavage per entry
1. A11G C37A
2. A23U C66U
3. C6U U62G

[reply]
1. 0.149
2. 0.545
3. 0.102

# batch size: 2; output self-cleavage per entry
1. G29C C37G
2. A28C G57C

[reply]
1. 0.084
2. 0.145

[ask] May I ask what self-cleavage has been recorded for C10G A41U ?
[reply] 1.09
